tested on: PPARg:RXRa 270nM:90nM, anti-RXR (NR concentration 270 nM, RXRa partner concentration 90 nM); experiment: PBM binding z-score (relative to random genomic background probes); higher = stronger binding; sequences stand for … in GC…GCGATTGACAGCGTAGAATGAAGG
Classify on PBM binding z-score using bin A (below 2), bin B (2 to below 4), bin C (4 or more)

{"columns": ["Macromolecule Sequence", "Assigned Category"],
 "data": [
  ["AGTCAAAGTTCAGAACGAGGTAACGTAAAGCACG", "bin C"]
]}

Prompt: Determine which band this sequence sits in: `TCCTATAGGTAATACAGGTGAAAGTCGGCATCTA`
Completion: bin A

Prompt: Okay, and `ATCTCTAGGTACCCAAGTTCAGTGAATGCCGAAC` ?
Completion: bin A

Prompt: Okay, and `TCTGCTAGGTCAACGATGGACAGCTAATCTGCTA` ?
Completion: bin B

Prompt: Okay, and `CCTAGCAGGCAAGGGTCACTCAAGCATTTCGCTT` ?
Completion: bin B

Prompt: Okay, and `GATACAGGGTTAGCTAGAGGCCAGAGTATGGAAA` ?
Completion: bin A

====

system: PPARg DBDmut:RXRa IVT, anti-PPARg (DBD mutation: PPARg1 K132A/R137A, NR concentration 270 nM, RXRa partner concentration 90 nM); assay: PBM binding z-score (relative to random genomic background probes); higher = stronger binding; sequences stand for … in GC…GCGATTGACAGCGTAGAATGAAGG
# label = 1 if PBM binding z-score >= 0.9 else 0

{"columns": ["Macromolecule Sequence", "Assigned Category"],
 "data": [
  ["ATCGAAAGGTCGGGGTGAGTATAGAGAAAGGGAA", 1],
  ["TCTATTAGGTGAAGGGCAACCGACGAGTCCGTTT", 1],
  ["CCGACTGGGGCAGAAAGGGTACCATACCATCCGG", 0]
]}

Prompt: Test whether the sequence `ATCTCTAGGTAACCAAGTCCAGTGAATGCCGAAC` records PBM binding z-score of 0.9 or higher.
Completion: 0

Prompt: Okay, and `AGAACGAGGGCACGCTGAGTTGTTAGCAGAGTAG` ?
Completion: 0

Prompt: Okay, and `ATCTCTAGGTAACCAAGTTCATTGAATGCCGAAC` ?
Completion: 1

Prompt: Okay, and `CGTATTAGTTGACCATAAGGGCAACCGAAGCTCG` ?
Completion: 0

Prompt: Okay, and `CCTTACGGGTCACTCCAGGTTATAGGATCGGAGT` ?
Completion: 0

Prompt: Okay, and `GCGACTGGGGCAAAGCAGGTTCCCATAAGGTTGG` ?
Completion: 0

Prompt: Okay, and `CGTCCAAGGTCAAGGTCAGTGCAAGAGACTCGAA` ?
Completion: 0

Prompt: Okay, and `TCATATCGGTAAATGCTAGGTGAAAGTCCGATCT` ?
Completion: 0

====

tested on: VDR:RXRa (NR concentration 270 nM, RXRa partner concentration 90 nM); assay: PBM binding z-score (relative to random genomic background probes); higher = stronger binding; sequences stand for … in GC…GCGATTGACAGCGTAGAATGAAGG
# PBM binding z-score annotations
Could you keep your reply to the number by itself?

{"columns": ["Macromolecule Sequence", "Readout Type", "Observed"],
 "data": [
  ["AATACAGGGTCATCGTTGGCCAGAGTACGCACAG", "PBM binding z-score", 5.13],
  ["CGTCAAAGTTCATCTAAGGTAACGTAAAGCACGC", "PBM binding z-score", 5.24],
  ["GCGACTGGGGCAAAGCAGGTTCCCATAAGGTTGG", "PBM binding z-score", -0.543],
  ["TCTCGGAGGACACGAAAGGTAAGAGCTCGACATC", "PBM binding z-score", 0.0922],
  ["ATACCAAGGTGATCGTGACGTCGTTGATACTAAC", "PBM binding z-score", 0.156]
]}

Prompt: Fill in: PBM binding z-score of `GCGACTGGGCCAAAGCAGGTTACCATAAGGTTGG` is ___
Completion: -0.513

Prompt: Okay, and `GTACGAAGGTGAATAGGTCGTTGATGAGTAGGCG` ?
Completion: 0.73

Prompt: Okay, and `CCTTACGGGTCACGAGGTTATAGCACGACGAGCG` ?
Completion: 5.23

Prompt: Okay, and `ACTAGTTGGTCAGTTGAGGTCACACACAATTCGG` ?
Completion: 4.65

Prompt: Okay, and `CCTCGGAGGACAGAAGGCCAGAGCTGTCCGCTTT` ?
Completion: -0.762

Prompt: Okay, and `CCTTACGGCTCAAGGTTATAGCACGGGTGGTACG` ?
Completion: 0.122

Prompt: Okay, and `GATACAGGGTCAAGGCCATAGTACGCGTATTGAT` ?
Completion: 4.21

====

test system: PPARa:RXRa (NR concentration 270 nM, RXRa partner concentration 90 nM); experiment: PBM binding z-score (relative to random genomic background probes); higher = stronger binding; sequences stand for … in GC…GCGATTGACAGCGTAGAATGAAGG
Classify on PBM binding z-score using low bracket: < 1; middle bracket: ≥ 1 and < 3; high bracket: ≥ 3

Solved cases (5 shown):
{"columns": ["Macromolecule Sequence", "Assigned Category"],
 "data": [
  ["ATATGTAGGTTAAGGGTCATTAAGGTTGGTTCGC", "high bracket"],
  ["CCAACTGGGGCATAAGGTTACCATAAGCCAGCCC", "middle bracket"],
  ["GGAGCGAGGGCAAGTTGATAGCAGAGTTTGATGG", "low bracket"],
  ["TTACCAAGGTGAGCTGAGGCCGTTGATCCAACTC", "low bracket"],
  ["CGTCCAAGGTCAGCAGGTCAGTGGAAGCGACGTG", "high bracket"]
]}

Prompt: Determine which band this sequence sits in: `CCTATTAGTTGACCATAAGGGCAGCCGAAGCTCG`
Completion: low bracket

Prompt: Okay, and `CCTTCTGGGCCATCAGGTCATTGATATCAACGTT` ?
Completion: middle bracket

Prompt: Okay, and `CGAACTAGGTCAAGGTCAAAGTCGGTTTGTGCCA` ?
Completion: high bracket

Prompt: Okay, and `GCTGCTAGGTCAGGTAGGTCAGCTAACGGGTACG` ?
Completion: middle bracket

Prompt: Okay, and `TCGAGTAGGTTAGGGGCATTCGGAATGGCGTCGA` ?
Completion: middle bracket

====

# PBM binding z-score annotations
test system: PXR:RXRa (NR concentration 270 nM, RXRa partner concentration 90 nM); test: PBM binding z-score (relative to random genomic background probes); higher = stronger binding; sequences stand for … in GC…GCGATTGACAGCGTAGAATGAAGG
Could you keep your reply to the number by itself?

{"columns": ["Macromolecule Sequence", "PBM binding z-score"],
 "data": [
  ["ACTTTCGGGTCAACGAGGTTATAGCACGCGTATA", 5.37],
  ["TCTCGGAGGACACGAAGGTCAGAGTTTTCCAGAG", 2],
  ["GCGACTGGGGCAAAGCAGGTTACCATGAGGTTGG", 0.378],
  ["CGTCAAAGTTCAACTAAAGTAACGTAAAGCACGC", 4.82],
  ["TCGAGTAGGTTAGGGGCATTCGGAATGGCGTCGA", 0.507]
]}

Below: the item to evaluate.
Prompt: Provide the documented PBM binding z-score with PXR:RXRa (NR concentration 270 nM, RXRa partner concentration 90 nM) as the system for `TAGCCTACGTCATGGGCCAGTATACCACGCGAAC`
Completion: -0.57

====

tested on: PPARa:RXRa (NR concentration 270 nM, RXRa partner concentration 90 nM); experiment: PBM binding z-score (relative to random genomic background probes); higher = stronger binding; sequences stand for … in GC…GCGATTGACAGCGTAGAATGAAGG
Readout Type: PBM binding z-score
Could you keep your reply to the number by itself?

Prompt: Provide the documented PBM binding z-score with PPARa:RXRa (NR concentration 270 nM, RXRa partner concentration 90 nM) as the system for `TCAGACAGGTGAAGGTAACACAGGTACGCAGTCG`
Completion: 1.53

====

# PBM binding z-score annotations
test system: PXR homodimer (NR concentration 270 nM); assay: PBM binding z-score (relative to random genomic background probes); higher = stronger binding; sequences stand for … in GC…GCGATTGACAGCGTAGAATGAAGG
Could you keep your reply to the number by itself?

Would you please look over these solved cases?
{"columns": ["Macromolecule Sequence", "Readout Type", "Observed"],
 "data": [
  ["TAGCCTAGGTCATTCAGGGACCAGTATAGAAAGC", "PBM binding z-score", -0.229],
  ["AGAACGAGGGCACGCTGAGTTGATATCAGAGTAG", "PBM binding z-score", 0.106],
  ["ACAGACAGGTGAGTGAAGGTAACACAGCTGGACG", "PBM binding z-score", 0.205]
]}

Prompt: Provide the documented PBM binding z-score with PXR homodimer (NR concentration 270 nM) as the system for `CGAATTAGGTCAGAACAGGACAGTGAAGGATGAT`
Completion: 0.149

Prompt: Okay, and `ATCGAAAGGTCGTTAGGTGAGTATACAGAAAGGC` ?
Completion: 0.99

Prompt: Okay, and `CGTCCAAGGTCAGCAGGCCAGTGAAAGCGACGTG` ?
Completion: -0.0334

The reported measurements were obtained from the supplement of paper PMC6555819.
